- System name: CHK1 (h) (Homo sapiens)
- Construct: purchased Upstate Ltd (assay run at Upstate)
- Sequence (O14757 1-476): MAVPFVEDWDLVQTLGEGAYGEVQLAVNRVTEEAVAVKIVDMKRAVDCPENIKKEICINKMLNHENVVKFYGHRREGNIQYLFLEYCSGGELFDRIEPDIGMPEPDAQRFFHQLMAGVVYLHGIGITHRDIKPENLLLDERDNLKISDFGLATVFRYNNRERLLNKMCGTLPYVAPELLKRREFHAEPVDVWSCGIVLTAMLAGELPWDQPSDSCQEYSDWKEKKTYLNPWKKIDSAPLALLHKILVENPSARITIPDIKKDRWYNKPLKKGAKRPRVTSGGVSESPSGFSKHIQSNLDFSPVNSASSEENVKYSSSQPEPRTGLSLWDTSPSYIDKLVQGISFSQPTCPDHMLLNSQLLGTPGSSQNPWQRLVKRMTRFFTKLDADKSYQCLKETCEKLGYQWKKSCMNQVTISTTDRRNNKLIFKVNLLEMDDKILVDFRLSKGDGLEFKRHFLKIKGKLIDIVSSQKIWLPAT
- Experimental protocol: Chk-1 kinase inhibiting activity (Upstate radiometric assay)
- Assay type: biochemical
pIC50: −log10 of the molar value.
# Lookup of reported pIC50 keyed by entry
Observable: pIC50

Query smiles	System name	Qual	Observed
C[N+](C)([O-])CCCOc1ccc(Cl)cc1NC(=O)Nc1ccc(C#N)cn1	CHK1 (h) (Homo sapiens)	=	6.24
CN(C)CCCOc1ccc(Cl)cc1NC(=O)Nc1cnc(C#N)cn1	CHK1 (h) (Homo sapiens)	>	8.00
CN(C)CCCOc1ccc(Cl)cc1NC(=O)Nc1ccc(C#N)cn1	CHK1 (h) (Homo sapiens)	=	6.55
CN(C)CCCOc1ccc(Cl)cc1NC(=O)Nc1cnccn1	CHK1 (h) (Homo sapiens)	=	7.39
Cc1cnc(NC(=O)Nc2cc(Cl)ccc2OCCC[N+](C)(C)[O-])cn1	CHK1 (h) (Homo sapiens)	=	6.89
C[N+](C)([O-])CCCOc1ccc(Cl)cc1NC(=O)Nc1cnccn1	CHK1 (h) (Homo sapiens)	=	7.15

###

- System name: UniProt Q12809
- Sequence (Q12809 whole entry): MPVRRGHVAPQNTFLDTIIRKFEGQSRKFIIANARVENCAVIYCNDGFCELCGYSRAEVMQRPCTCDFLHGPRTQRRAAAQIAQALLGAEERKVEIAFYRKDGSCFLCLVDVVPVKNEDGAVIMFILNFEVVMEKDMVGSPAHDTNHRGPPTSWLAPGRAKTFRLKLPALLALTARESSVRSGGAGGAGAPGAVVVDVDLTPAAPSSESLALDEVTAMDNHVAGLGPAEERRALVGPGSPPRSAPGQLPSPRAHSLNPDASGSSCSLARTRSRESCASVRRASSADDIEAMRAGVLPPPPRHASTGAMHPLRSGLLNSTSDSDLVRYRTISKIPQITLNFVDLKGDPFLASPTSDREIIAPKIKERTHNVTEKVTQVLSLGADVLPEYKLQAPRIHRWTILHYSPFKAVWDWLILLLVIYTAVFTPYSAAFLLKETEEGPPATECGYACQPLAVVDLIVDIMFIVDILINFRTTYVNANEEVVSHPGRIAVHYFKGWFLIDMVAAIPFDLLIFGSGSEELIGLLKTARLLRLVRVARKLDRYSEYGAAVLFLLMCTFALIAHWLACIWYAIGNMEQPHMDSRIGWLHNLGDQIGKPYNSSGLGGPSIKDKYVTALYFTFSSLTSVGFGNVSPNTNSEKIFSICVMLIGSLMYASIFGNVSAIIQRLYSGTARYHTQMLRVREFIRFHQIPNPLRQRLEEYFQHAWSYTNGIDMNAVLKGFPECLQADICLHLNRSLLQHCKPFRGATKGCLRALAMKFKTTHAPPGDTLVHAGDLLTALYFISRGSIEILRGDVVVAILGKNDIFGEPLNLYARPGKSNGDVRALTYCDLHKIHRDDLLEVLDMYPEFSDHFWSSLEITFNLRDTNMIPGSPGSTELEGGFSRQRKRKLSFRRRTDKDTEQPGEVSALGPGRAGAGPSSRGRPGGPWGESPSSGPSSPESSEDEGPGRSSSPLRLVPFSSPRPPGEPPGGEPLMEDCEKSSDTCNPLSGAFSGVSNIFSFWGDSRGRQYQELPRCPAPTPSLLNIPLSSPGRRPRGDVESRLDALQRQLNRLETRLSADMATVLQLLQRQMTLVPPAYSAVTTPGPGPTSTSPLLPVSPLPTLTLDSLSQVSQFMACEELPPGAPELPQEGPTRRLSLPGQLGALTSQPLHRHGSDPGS
- Experimental protocol: Functional hERG assay (patch clamp, HEK-293 cells)
- Stated conditions: 5-point dose response, triplicate
pIC50: −log10 of the molar value.
Measured pIC50 by item
Observable: pIC50

Query smiles	System name	Qual	Observed
Cc1cnc(NC(=O)Nc2cc(Cl)ccc2OCCCN(C)C)cn1	UniProt Q12809	=	6.21
CN(C)CCCOc1ccc(Cl)cc1NC(=O)Nc1cnc(C#N)cn1	UniProt Q12809	=	6.36
Cc1cnc(NC(=O)Nc2cc(Cl)ccc2OCCC[N+](C)(C)[O-])cn1	UniProt Q12809	<	4.52
C[N+](C)([O-])CCCOc1ccc(Cl)cc1NC(=O)Nc1cnc(C#N)cn1	UniProt Q12809	=	4.79
CN(C)CCCOc1ccc(Cl)cc1NC(=O)Nc1ccc(C#N)cn1	UniProt Q12809	=	6.89
C[N+](C)([O-])CCCOc1ccc(Cl)cc1NC(=O)Nc1cnccn1	UniProt Q12809	=	4.57
CN(C)CCCOc1ccc(Cl)cc1NC(=O)Nc1cnccn1	UniProt Q12809	=	6.97
C[N+](C)([O-])CCCOc1ccc(Cl)cc1NC(=O)Nc1ccc(C#N)cn1	UniProt Q12809	=	5.61

Reference for the values: patent US20090270416A1
